System: CAKI-1
Assay: NCI tumour cell line growth inhibition, 48 h
The source made the active and inactive calls. Cut-off read from the data, not from the text of the source: active = GI50 up to about 1.1 µM and inactive = higher.
RECORDED_ENDPOINT: GI50

Inquiry: Looking for the measured GI50 of C[C@]12[C@@H]3CC[C@H]1[C@@H](O)C(=O)N2CC3 , can you help?
Reply text: > 100 µM (inactive)

Inquiry: Looking for the measured GI50 of CC1(C)OC2C(CO)OC(n3ccc(=O)[nH]c3=O)C2O1 (stereo unspecified) , can you help?
Reply text: > 100 µM (inactive)

Inquiry: Looking for the measured GI50 of CC(=O)NNc1nc(C)c(C(=O)NNC(=O)C(=O)Nc2ccc(Cl)cc2Cl)s1 , can you help?
Reply text: 28.3 µM (inactive)

Inquiry: Looking for the measured GI50 of Cc1c(C(=O)C/C(=N/NC(=O)c2ccccc2O)C(=O)Nc2ccccc2C(C)C)[n+]([O-])c2ccccc2[n+]1[O-] , can you help?
Reply text: 30.8 µM (inactive)

Inquiry: Looking for the measured GI50 of CCCCOC(=O)CNC(=O)OC/C=C/C#CC#C/C=C/COC(=O)NCC(=O)OCCCC , can you help?
Reply text: > 10 µM (inactive)

Inquiry: Looking for the measured GI50 of C/C(=N\O)c1cccc(Nc2c3ccccc3nc3occc23)c1 , can you help?
Reply text: 1.96 µM (inactive)

Inquiry: Looking for the measured GI50 of CCC(C#N)NCc1ccc(CNC(C#N)CC)cc1 (stereo unspecified) , can you help?
Reply text: > 100 µM (inactive)

Inquiry: Looking for the measured GI50 of Cc1ccc(O)c(C2=CC3=NNC(=O)C3C(c3cccc(Cl)c3)C2)c1 (stereo unspecified) , can you help?
Reply text: 32.5 µM (inactive)

Inquiry: Looking for the measured GI50 of Cc1nn(-c2ccccc2)c2c1N=C(C(=O)O)CC(c1ccccc1)=N2 , can you help?
Reply text: > 10 µM (inactive)

Inquiry: Looking for the measured GI50 of N#Cc1ccc(Oc2nc3ccccc3nc2-c2ccccc2)cc1 , can you help?
Reply text: > 100 µM (inactive)

Inquiry: Looking for the measured GI50 of CCCCCCCc1cscc1-c1cscc1Br , can you help?
Reply text: 22.5 µM (inactive)

====

Test system: OVCAR-4
Experiment: NCI tumour cell line growth inhibition, 48 h
Calls of active or inactive are those of the source. Rule as the data show it: active = GI50 up to about 1.1 µM and inactive = higher.
Kindly supply the reported GI50 values for the records listed here.

Inquiry: Looking for the measured GI50 of O=C(O)CNC(=O)C1NC(C(F)(F)F)(C(F)(F)F)OC1(C(F)(F)F)C(F)(F)F (centres undefined) , can you help?
Reply text: > 100 µM (inactive)

Inquiry: Looking for the measured GI50 of CCn1c(O)c(C(=O)NC(C)c2ccc([N+](=O)[O-])cc2)c(=O)n(CC)c1=S (centres undefined) , can you help?
Reply text: 1.48 µM (inactive)

Inquiry: Looking for the measured GI50 of C[C@]12CCC(N3CCCC3)CC1=CC[C@@H]1[C@@H]2CC[C@]2(C)C(O)[C@H](n3ccnc3)C[C@@H]12 (some centres undefined) , can you help?
Reply text: 73.6 µM (inactive)

Inquiry: Looking for the measured GI50 of CC[C@@]1(O)C(=O)OCc2c1cc1n(c2=O)Cc2c-1nc1ccccc1c2/C=N\NC(=O)C(C)N (some centres undefined) , can you help?
Reply text: 7.1 µM (inactive)

Inquiry: Looking for the measured GI50 of O=C(NCCCN1CCN(CCCNC(=O)c2cc(-c3ccccc3)nc3ccccc23)CC1)c1cc(-c2ccccc2)nc2ccccc12 , can you help?
Reply text: 17.8 µM (inactive)

Inquiry: Looking for the measured GI50 of COc1cc(C(=O)Nc2nnc(S(N)(=O)=O)s2)cc(OC)c1OC , can you help?
Reply text: > 100 µM (inactive)

Inquiry: Looking for the measured GI50 of CCOC(=O)C1C(=O)CC1(C)C (centres undefined) , can you help?
Reply text: > 10 µM (inactive)

Inquiry: Looking for the measured GI50 of C(=N\c1nc2cc3sc(/N=C/c4cccs4)nc3cc2s1)/c1cccs1 , can you help?
Reply text: > 100 µM (inactive)

Inquiry: Looking for the measured GI50 of N#Cc1cc([N+](=O)[O-])ccc1NC(=O)/C(=N\NC(=O)c1ccncc1)C(c1cnc2ccc([N+](=O)[O-])cc2n1)[N+](=O)[O-] (centres undefined) , can you help?
Reply text: 2.09 µM (inactive)

====

System: SF-268
Experiment: NCI tumour cell line growth inhibition, 48 h
The source made the active and inactive calls. Rule as the data show it: active = GI50 up to about 1.1 µM and inactive = higher.
Give one outcome, nothing more. List: active, inactive

Inquiry: For this compound, state the assay outcome: O=C(Nc1ccccc1)Oc1ccccc1C1CCCCC1
Reply text: inactive

Inquiry: For this compound, state the assay outcome: COc1ccc(-c2cs/c(=N\c3ccccc3)n2CCCN(C)C)cc1
Reply text: inactive

Inquiry: For this compound, state the assay outcome: C[C@]12CC[C@H](O)C[C@H]1CC[C@@H]1[C@@H]2CC[C@]2(C)[C@@H](C3=CC(=O)OC3)[C@@H](O)C[C@]12O [GITOXIGENIN]
Reply text: active

Inquiry: For this compound, state the assay outcome: O=C1/C(=C/c2ccccc2[N+](=O)[O-])N=C(c2ccccc2)N1C1Nc2cc3c(cc2S1)NC(N1C(=O)/C(=C/c2ccccc2[N+](=O)[O-])N=C1c1ccccc1)S3 (stereo not drawn)
Reply text: inactive

Inquiry: For this compound, state the assay outcome: CC1(C)CC(c2c[nH]c3ccccc23)=CC2=Nc3ccccc3C21O (stereo not drawn)
Reply text: inactive

Inquiry: For this compound, state the assay outcome: c1cc2cc(c1)CN1CCNCCN(CCNCC1)Cc1cccc(c1)CN1CCNCCN(CCNCC1)C2
Reply text: inactive

Inquiry: For this compound, state the assay outcome: CCOC(=O)C1=C(C)OC2(O)C=CC(O)=C3C(=O)N(c4ccccc4)C(=O)C312 (stereo not drawn)
Reply text: inactive

Inquiry: For this compound, state the assay outcome: C/C(CCn1[nH]c(=O)ccc1=O)=N\NC(=O)C(N)=O
Reply text: inactive

====

Tested on: TK-10
Test: NCI tumour cell line growth inhibition, 48 h
Calls of active or inactive are those of the source. No stated cut-off is given here; in the data, active = GI50 up to about 1.1 µM and inactive = higher.
Kindly supply the reported GI50 values for the records listed here.

Inquiry: Looking for the measured GI50 of Cc1cccc(N2C(=O)C(=O)C(c3nc4ccccc4s3)C(=O)C2=O)c1C , can you help?
Reply text: > 100 µM (inactive)

Inquiry: Looking for the measured GI50 of CCOC(=O)Cn1nnc2ccc(Nc3nc4ccccc4nc3-c3ccccc3)cc21 , can you help?
Reply text: 25.4 µM (inactive)

Inquiry: Looking for the measured GI50 of O=C(Nc1ccccc1)Oc1ccccc1C1CCCCC1 , can you help?
Reply text: 28.8 µM (inactive)

Inquiry: Looking for the measured GI50 of Clc1ccccc1C1N2CCCCC2[C@@H]2c3[nH]c4ccccc4c3CCN12 (some centres not stated) , can you help?
Reply text: 23.8 µM (inactive)

Inquiry: Looking for the measured GI50 of CC(=O)NNc1nc(C)c(C(=O)NNC(=O)C(=O)Nc2ccc(Cl)cc2Cl)s1 , can you help?
Reply text: 74.3 µM (inactive)

Inquiry: Looking for the measured GI50 of CCCCCCCCOCC(O)COC (configuration not stated) , can you help?
Reply text: > 100 µM (inactive)

Inquiry: Looking for the measured GI50 of CCOC(=O)C1=C(C)OC2(O)C=CC(O)=C3C(=O)N(c4ccccc4)C(=O)C312 (configuration not stated) , can you help?
Reply text: 37.4 µM (inactive)

Inquiry: Looking for the measured GI50 of O=C(NC(C(F)(F)F)(C(F)(F)F)P(=O)(c1ccccc1)c1ccccc1)C(C(F)(F)F)C(F)(F)F , can you help?
Reply text: 37.2 µM (inactive)

Inquiry: Looking for the measured GI50 of Cn1ncc2ccc3[nH]c4ccccc4c(=O)c3c21 , can you help?
Reply text: 21.1 µM (inactive)

Inquiry: Looking for the measured GI50 of CCSc1nc(=S)n(-c2ccccc2)c(C)c1C(C)=O , can you help?
Reply text: > 100 µM (inactive)

Inquiry: Looking for the measured GI50 of COc1cc([N+](=O)[O-])c(S(=O)(=O)O)cc1NS(=O)(=O)c1ccc(C)cc1 , can you help?
Reply text: > 100 µM (inactive)

Inquiry: Looking for the measured GI50 of CC1=CC=C2C(C)(C)CC[C@@H]3OC(=O)[C@H]1[C@]23C , can you help?
Reply text: > 100 µM (inactive)

Inquiry: Looking for the measured GI50 of COc1cc(C2C3=C(COC3=O)Oc3cc4c(cc32)OCO4)cc(OC)c1OC(C)=O (configuration not stated) , can you help?
Reply text: 0.966 µM (active)

Inquiry: Looking for the measured GI50 of N#CC(C(=O)Nc1ccccc1)C1=C(Cl)C(=O)c2ccccc2C1=O (configuration not stated) , can you help?
Reply text: 21.7 µM (inactive)

Inquiry: Looking for the measured GI50 of Nn1c(CCCCCCCCc2nnc(-c3c(O)ccc4ccccc34)n2N)nnc1-c1c(O)ccc2ccccc12 , can you help?
Reply text: > 100 µM (inactive)

Inquiry: Looking for the measured GI50 of O=C(C(=C(I)I)c1ccccc1)c1ccccc1 , can you help?
Reply text: 28.4 µM (inactive)

Inquiry: Looking for the measured GI50 of CC(C)(O)[C@@H]1CC[C@@]2(C)CCCC(O)C2(O)C1 (some centres not stated) , can you help?
Reply text: > 100 µM (inactive)

Inquiry: Looking for the measured GI50 of CC(=O)OCC1OC(Oc2cc(C)c(O)cc2C/C=C(\C)CC/C=C(\C)C[C@@H](C=C(C)C)OC(C)=O)C(O)C(OC(C)=O)C1OC(C)=O (some centres not stated) , can you help?
Reply text: 22.9 µM (inactive)

Inquiry: Looking for the measured GI50 of ON(Cc1ccccc1)C(=S)c1ccccc1 , can you help?
Reply text: 21.8 µM (inactive)

Inquiry: Looking for the measured GI50 of C/C(=N\NC(=O)c1ccc(Cl)cc1)c1nc2cccnc2[nH]1 , can you help?
Reply text: 15.2 µM (inactive)

Inquiry: Looking for the measured GI50 of CC1(Br)S(=O)(=O)OCCOS1(=O)=O , can you help?
Reply text: > 100 µM (inactive)

Inquiry: Looking for the measured GI50 of CC#CCCCC1(C)CCCNC1=S (configuration not stated) , can you help?
Reply text: > 10 µM (inactive)

Attribution: ChEMBL document CHEMBL1201862
